Overview of recorded insulin secretion stimulation for various compounds
Assay: stimulators of insulin release from INS-1E, primary screen, cell-based, 5 mM glucose, NPC library (AID 1117329); also: reference of the scale not given here
Conditions: rat INS-1E insulin secretion, at 10 µM, stronger effect = higher value
Express your answer in %, writing the number without its unit.

Exam item: Quick check: insulin secretion stimulation of C=CCNc1nc(NCC=C)nc(N2CCN(C(c3ccc(F)cc3)c3ccc(F)cc3)CC2)n1 ?
Marked response: -0.6

Exam item: Same read-out for Cc1c(I)c(=O)n(-c2ccccc2)n1C ?
Marked response: 0.4

Exam item: Same read-out for C[C@@H](O)[C@H](N)C(=O)O ?
Marked response: -1.9

Exam item: Same read-out for CCOC(=O)C1=C(O)c2ccccc2S(=O)(=O)N1C ?
Marked response: 0.9

Exam item: Same read-out for O=C(CS)Nc1ccccc1 ?
Marked response: 6.4

Proceed to the following item.
Exam item: Quick check: insulin secretion stimulation of CNC(=O)Oc1ccc2c(c1)[C@]1(C)CCN(C)[C@@H]1N2C ?
Marked response: 5
